# pKi listing for each entry below
tgt: human orexin 1 receptor (Homo sapiens, UniProt O43613)
Sequence (O43613 whole entry): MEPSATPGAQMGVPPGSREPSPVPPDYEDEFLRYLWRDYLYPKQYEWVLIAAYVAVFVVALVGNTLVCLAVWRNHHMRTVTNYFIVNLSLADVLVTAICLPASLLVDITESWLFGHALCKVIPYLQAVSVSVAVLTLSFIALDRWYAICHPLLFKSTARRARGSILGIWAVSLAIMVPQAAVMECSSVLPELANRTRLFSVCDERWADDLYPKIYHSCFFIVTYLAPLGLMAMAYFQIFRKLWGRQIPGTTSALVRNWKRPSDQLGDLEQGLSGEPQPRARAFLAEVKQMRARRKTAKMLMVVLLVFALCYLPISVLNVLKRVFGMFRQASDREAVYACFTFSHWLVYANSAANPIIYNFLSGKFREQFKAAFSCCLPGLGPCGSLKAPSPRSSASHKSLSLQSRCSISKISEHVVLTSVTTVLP
protocol_notes: Calcium accumulation in cells (FLIPR), antagonism of orexin A, human orexin 1 receptor
setup_conditions: calcium accumulation, antagonism of orexin A, Cheng-Prusoff corrected; read-out: FLIPR hOx1R Ki
Reminder that pKi means the negative base-10 logarithm of the concentration expressed in mol/L.

# count of solved cases: 5
compound	observed_property	observed_value
COc1cc(C)nc(N2CCC3(CCCN(Cc4n[nH]c5ccccc45)C3=O)C2)n1 (centres unmarked)	pKi	6.51
Cc1cc(C)nc(N2CCC3(CC2)OCCN(Cc2nocc2-c2ccccc2)C3=O)n1	pKi	5.57
COc1cc(-c2nn(C)nc2CN2CCNC3(CCN(c4nc(C)cc(C)n4)CC3)C2=O)ccn1	pKi	5.37
COc1cccc(-c2sc(C)nc2CN2CCNC3(CCN(c4nc(C)cc(OC)n4)CC3)C2=O)c1	pKi	6.41
Cc1cc(C)nc(N2CCC3(CCN(Cc4c[nH]c5ccccc45)C3=O)CC2)n1	pKi	5.72

IN: Please report the measured pKi for COc1cc(C)nc(N2CC[C@@]3(CCCN(Cc4c[nH]c5ccccc45)C3=O)C2)n1 (single isomer, unassigned)
OUT: 6.86

IN: Identify pKi associated with the compound COc1cccc(-c2oc(C)nc2CN2CCNC3(CCN(c4nc(C)cc(OC)n4)CC3)C2=O)c1
OUT: 6.92

IN: Determine its reported pKi: Cn1ccc2ccnc(N3CCC4(CCN(Cc5c[nH]c6ccccc56)C4=O)C3)c21 (centres unmarked)
OUT: 5.35

----------
tgt: human orexin 2 receptor (Homo sapiens, UniProt O43614)
Construct: expressed in transfected cells
Sequence (O43614 whole entry): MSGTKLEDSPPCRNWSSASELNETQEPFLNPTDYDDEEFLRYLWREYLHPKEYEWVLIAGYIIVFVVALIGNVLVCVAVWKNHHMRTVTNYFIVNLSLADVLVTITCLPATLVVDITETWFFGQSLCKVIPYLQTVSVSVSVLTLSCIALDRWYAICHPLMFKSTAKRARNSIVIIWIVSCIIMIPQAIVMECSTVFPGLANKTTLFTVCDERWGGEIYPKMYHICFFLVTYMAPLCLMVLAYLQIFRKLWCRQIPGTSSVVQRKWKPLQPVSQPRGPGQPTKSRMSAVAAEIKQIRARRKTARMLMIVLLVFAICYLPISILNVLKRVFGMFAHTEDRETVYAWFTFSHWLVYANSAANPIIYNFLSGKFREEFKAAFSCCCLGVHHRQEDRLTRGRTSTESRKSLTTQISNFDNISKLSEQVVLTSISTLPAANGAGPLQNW
protocol_notes: Calcium accumulation in cells (FLIPR), antagonism of orexin A, human orexin 2 receptor
Type: cell-based
setup_conditions: calcium accumulation, antagonism of orexin A, Cheng-Prusoff corrected; read-out: FLIPR hOx2R Ki
observed_property: Ki (nM)
Report the value in nM with no unit label.

compound	tgt	unit_of_measurement	Ki
O=C1N(Cc2c[nH]c3ccccc23)CCC12CCN(c1cc(C(F)(F)F)ncn1)C2 (centres unmarked)	human orexin 2 receptor (Homo sapiens, UniProt O43614)	nM	1790
Cc1ccnc(N2CCC3(CCN(Cc4c[nH]c5ccccc45)C3=O)C2)c1 (centres unmarked)	human orexin 2 receptor (Homo sapiens, UniProt O43614)	nM	182
Cc1cc(C)nc(N2CCC3(CC2)NCCN(Cc2ccccc2-c2ncc(C)o2)C3=O)n1	human orexin 2 receptor (Homo sapiens, UniProt O43614)	nM	423
N#Cc1cccc(N2CCC3(CC2)COCC(=O)N3Cc2cccc3[nH]ccc23)n1	human orexin 2 receptor (Homo sapiens, UniProt O43614)	nM	584

IN: Please report Ki for the following compound: COc1cc(C)nc(N2CCC3(CCCN(Cc4n[nH]c5ccccc45)C3=O)C2)n1 (centres unmarked)
OUT: 48

IN: Please look at this compound and report its Ki: N#Cc1ccnc(N2CCC3(CC2)COCC(=O)N3Cc2cccc3[nH]ccc23)c1
OUT: 1020

IN: Let me know recorded Ki for COc1ccnc(N2CC[C@]3(CCN(Cc4c[nH]c5ccccc45)C3=O)C2)n1 , thanks.
OUT: 103

IN: Give the reported Ki for this compound. O=C1COCC2(CCN(c3cnc4ccccc4n3)CC2)N1Cc1c[nH]c2ccccc12
OUT: 635

IN: Give recorded Ki. Cc1ccnc(N2CCC3(CC2)NCCN(Cc2c[nH]c4ccccc24)C3=O)n1
OUT: 222

IN: In one line, give reported Ki of the entry Cc1cc(C)nc(N2CCC3(CC2)NCCN(Cc2nn(C)cc2-c2cccc(OCC(C)C)c2)C3=O)n1 .
OUT: 7

IN: Determine from records and report Ki for Cc1cncc(N2CCC3(CCC(=O)N3Cc3cccc4[nH]ccc34)CC2)n1
OUT: 133

IN: Consider the compound Cc1cc(C)nc(N2CCC3(CC2)NCCN(Cc2nn(C)cc2-c2cccc(OCCOC(C)C)c2)C3=O)n1 and give its recorded Ki.
OUT: 49

IN: Give the reported value of Ki for this record: COc1ccnc(N2CCC3(CCN(Cc4c[nH]c5ccccc45)C3=O)CC2)n1
OUT: 134

IN: Return reported Ki. Input compound: Cc1cc(C)nc(N2CCC3(CC2)NCCN(Cc2nn(C)nc2-c2ccccc2)C3=O)n1
OUT: 240

IN: Return reported Ki. Input compound: Cn1ccnc1-c1ccnc(N2CCC3(CCN(Cc4c[nH]c5ccccc45)C3=O)C2)n1 (centres unmarked)
OUT: 489

IN: Determine its reported Ki: COc1cc(C)nc(N2CCC3(CCCN(Cc4c[nH]c5ncccc45)C3=O)C2)n1 (centres unmarked)
OUT: 115

IN: Annotate the compound Cc1ccc(C)c(CN2C(=O)COCC23CCN(c2cnc4ccccc4n2)CC3)c1 with its measured Ki.
OUT: 24
